- measured on: DNA topoisomerase IB (LdTopIB) (Leishmania donovani, UniProt A0A3Q8IHS4+Q8WQM6)
- Sequence (A0A3Q8IHS4 1-635): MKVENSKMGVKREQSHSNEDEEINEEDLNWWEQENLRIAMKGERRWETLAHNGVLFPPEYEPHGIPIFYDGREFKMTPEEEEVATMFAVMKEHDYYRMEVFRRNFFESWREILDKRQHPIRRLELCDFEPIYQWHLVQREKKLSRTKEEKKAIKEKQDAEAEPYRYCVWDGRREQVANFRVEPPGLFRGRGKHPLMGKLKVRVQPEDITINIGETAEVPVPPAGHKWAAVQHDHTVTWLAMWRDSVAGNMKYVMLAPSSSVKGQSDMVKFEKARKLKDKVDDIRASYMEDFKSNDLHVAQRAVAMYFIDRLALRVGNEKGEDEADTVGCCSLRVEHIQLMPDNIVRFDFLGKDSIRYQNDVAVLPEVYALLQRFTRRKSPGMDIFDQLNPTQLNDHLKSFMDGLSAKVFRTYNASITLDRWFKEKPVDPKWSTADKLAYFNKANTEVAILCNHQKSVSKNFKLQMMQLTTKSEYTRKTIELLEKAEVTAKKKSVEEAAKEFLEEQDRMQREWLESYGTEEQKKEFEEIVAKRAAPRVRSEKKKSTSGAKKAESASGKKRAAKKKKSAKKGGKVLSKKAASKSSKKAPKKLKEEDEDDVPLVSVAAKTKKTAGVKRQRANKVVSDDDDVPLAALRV
- Sequence (Q8WQM6 1-262): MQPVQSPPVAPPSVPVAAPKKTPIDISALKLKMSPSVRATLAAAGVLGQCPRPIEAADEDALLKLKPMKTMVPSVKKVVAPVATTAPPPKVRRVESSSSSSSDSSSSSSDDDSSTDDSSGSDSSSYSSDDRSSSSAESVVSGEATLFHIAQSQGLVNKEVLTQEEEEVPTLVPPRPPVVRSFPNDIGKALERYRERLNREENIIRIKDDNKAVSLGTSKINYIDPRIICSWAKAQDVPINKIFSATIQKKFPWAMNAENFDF
- measurement notes: supercoiled plasmid DNA relaxation assay with purified recombinant enzyme
observed property: IC50 (µM)
A number alone suffices; assume µM.

INPUT: # get_value(readout='IC50', item= CC(C)CCC/C=C\CCCCCCCCCC(=O)O [compound 1, (Z)-16-methyl-11-heptadecenoic acid] )
OUTPUT: 62.3
